Hello, the source for this data is the nanobody polyreactivity screen of Harvey et al. (2022), in case you need it.

- Experiment: yeast display, Sf9 membrane polyspecificity reagent, FACS + sequencing; frameworks hold sequencing errors
Measured Quantity: polyreactivity (PSR sort gate)

QVQLVESGGGLVQAGGSLRLSCAASGLIFISYAMGWYRQAPGKERELVAAITRSAGTTYYADSVKGRFTISRDNAKNTVYLQMNSLKPEDTAVYYCNALYPITPEDYWGQGTQVTVSS low polyreactivity
QVQLVESGGGLVQAGGSLRLSCAASGSNFQNYAMGLYIQAPGKERELVAAISSSGTGTSYADSVKGRFTISRDNAKNTVYLQMNSLKPEDTAVYYCAADYLDYADSAYYYWGQCTQVTVSS low polyreactivity
QDQLVESGGGLVQAGGSLRLSCAASRSTFYHNVMGWYRQAPGKERELVASIDTGDSTNYADSVKGRFTISRDNAKNTVYLQMNSLKPEDTAVYYCAAEIPRRWASFATLWYDYWGQGTQVTVSS low polyreactivity
